# TARGET_ENTITY: EZH2 (Homo sapiens, UniProt Q15910)
# Sequence (Q15910 whole entry, species assumed): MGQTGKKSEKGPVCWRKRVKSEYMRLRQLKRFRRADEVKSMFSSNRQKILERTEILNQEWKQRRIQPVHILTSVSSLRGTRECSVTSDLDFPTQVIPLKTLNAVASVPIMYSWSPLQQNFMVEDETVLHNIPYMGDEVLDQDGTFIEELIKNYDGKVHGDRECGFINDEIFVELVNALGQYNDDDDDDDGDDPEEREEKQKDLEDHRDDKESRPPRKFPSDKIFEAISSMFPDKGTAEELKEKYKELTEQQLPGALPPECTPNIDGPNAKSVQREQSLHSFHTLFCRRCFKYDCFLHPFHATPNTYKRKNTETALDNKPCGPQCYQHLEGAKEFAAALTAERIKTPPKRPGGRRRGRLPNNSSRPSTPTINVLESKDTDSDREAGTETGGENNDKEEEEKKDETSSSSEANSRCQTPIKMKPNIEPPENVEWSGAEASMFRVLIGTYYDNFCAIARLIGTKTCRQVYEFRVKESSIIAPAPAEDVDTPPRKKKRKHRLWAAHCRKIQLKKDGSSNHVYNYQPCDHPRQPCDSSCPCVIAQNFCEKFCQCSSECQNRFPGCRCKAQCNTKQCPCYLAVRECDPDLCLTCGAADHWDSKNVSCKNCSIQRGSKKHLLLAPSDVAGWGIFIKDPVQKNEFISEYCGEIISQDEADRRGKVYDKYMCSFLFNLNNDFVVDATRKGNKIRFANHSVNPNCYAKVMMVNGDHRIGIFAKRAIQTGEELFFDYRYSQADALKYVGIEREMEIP
# Sequence (O75530 whole entry partner, species assumed): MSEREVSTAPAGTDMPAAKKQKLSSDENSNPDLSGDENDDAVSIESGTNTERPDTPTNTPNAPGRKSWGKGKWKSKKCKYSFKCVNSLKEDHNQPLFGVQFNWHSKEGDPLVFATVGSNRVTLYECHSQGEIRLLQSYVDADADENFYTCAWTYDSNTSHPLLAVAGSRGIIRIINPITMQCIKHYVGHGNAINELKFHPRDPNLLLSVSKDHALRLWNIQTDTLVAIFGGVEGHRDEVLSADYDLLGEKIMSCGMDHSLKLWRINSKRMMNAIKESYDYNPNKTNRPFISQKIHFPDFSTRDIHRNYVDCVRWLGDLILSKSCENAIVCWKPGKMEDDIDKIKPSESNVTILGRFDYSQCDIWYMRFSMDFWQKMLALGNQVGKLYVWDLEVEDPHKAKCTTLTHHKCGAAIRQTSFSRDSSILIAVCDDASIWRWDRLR
# Sequence (Q15022 whole entry partner, species assumed): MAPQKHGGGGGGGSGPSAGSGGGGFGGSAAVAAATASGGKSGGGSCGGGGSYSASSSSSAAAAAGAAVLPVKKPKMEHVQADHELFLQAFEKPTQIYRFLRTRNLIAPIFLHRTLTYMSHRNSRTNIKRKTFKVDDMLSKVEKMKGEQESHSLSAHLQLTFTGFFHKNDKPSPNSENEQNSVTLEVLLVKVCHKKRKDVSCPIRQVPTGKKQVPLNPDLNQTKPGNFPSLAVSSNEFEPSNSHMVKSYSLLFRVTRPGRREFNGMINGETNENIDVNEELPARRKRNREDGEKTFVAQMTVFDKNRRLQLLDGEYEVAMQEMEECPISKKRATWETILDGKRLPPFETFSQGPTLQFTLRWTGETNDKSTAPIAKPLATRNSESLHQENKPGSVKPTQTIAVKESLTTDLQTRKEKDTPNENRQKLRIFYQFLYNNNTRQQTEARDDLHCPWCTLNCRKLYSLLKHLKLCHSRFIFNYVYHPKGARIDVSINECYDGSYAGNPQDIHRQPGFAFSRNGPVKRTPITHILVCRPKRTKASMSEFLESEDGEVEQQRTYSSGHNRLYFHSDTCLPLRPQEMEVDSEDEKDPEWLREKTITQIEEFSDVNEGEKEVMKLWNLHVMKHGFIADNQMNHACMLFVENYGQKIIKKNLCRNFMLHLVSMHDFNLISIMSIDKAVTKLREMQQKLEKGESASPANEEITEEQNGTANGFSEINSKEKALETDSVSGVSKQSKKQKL
# Sequence (Q09028 whole entry partner, species assumed): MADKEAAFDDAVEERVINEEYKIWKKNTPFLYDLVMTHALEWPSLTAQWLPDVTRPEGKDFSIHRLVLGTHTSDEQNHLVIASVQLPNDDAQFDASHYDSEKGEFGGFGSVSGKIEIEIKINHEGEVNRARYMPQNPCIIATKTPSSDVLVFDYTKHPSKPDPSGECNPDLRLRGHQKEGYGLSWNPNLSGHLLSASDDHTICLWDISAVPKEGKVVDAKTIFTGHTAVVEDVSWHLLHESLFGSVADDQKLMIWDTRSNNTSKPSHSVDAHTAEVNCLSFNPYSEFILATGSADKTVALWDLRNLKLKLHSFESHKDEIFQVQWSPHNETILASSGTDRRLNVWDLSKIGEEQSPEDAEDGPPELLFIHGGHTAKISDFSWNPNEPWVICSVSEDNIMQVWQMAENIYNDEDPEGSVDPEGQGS
# Sequence (Q6ZN18 whole entry partner, species assumed): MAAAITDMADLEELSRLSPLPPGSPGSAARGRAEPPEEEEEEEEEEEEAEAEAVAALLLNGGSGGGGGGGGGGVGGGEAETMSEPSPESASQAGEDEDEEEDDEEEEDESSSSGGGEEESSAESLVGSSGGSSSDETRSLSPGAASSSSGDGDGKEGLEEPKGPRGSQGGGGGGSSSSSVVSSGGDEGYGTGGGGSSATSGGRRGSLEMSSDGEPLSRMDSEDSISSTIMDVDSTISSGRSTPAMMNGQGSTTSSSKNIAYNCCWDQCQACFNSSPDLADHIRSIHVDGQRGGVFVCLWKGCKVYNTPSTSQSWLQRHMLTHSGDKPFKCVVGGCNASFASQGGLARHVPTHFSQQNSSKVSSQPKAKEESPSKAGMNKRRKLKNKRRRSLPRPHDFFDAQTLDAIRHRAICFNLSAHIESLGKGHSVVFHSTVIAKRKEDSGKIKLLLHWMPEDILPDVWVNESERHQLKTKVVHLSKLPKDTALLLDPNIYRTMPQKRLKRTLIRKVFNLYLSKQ
# EXPERIMENT: BPS Bioscience assay, EZH2
# Type: biochemical
pIC50: −log10 of the molar value.
PROPERTY: pIC50

q: Name the recorded pIC50 for "COc1cc2c(NC3CCN(C(C)C)CC3)nc(C3CCCCC3)nc2cc1OCCCN1CCCC1" .
a: < 5.00

----------
# TARGET_ENTITY: JMJD2E (Homo sapiens)
# Sequence (B2RXH2 whole entry): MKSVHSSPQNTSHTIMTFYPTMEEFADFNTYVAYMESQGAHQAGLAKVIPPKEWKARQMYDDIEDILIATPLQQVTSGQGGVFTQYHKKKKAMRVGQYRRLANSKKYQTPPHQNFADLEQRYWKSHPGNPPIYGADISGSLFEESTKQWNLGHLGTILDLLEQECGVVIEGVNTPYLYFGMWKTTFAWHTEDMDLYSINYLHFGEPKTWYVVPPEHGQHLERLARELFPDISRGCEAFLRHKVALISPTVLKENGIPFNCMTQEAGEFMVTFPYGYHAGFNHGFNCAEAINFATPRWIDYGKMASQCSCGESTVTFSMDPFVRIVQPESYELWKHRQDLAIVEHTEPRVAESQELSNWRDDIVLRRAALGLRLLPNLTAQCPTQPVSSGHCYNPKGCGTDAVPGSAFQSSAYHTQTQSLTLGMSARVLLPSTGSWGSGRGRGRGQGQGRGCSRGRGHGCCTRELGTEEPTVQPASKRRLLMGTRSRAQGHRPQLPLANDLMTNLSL
PROPERTY: IC50 (µM)
Just the number please, in µM, no unit attached.

q: Name the recorded IC50 for COc1cc2c(NC3CCN(C(C)C)CC3)nc(C3CCCCC3)nc2cc1OCCCN1CCCC1 [UNC0638] .
a: 4.5

----------
# TARGET_ENTITY: SUV39H2 (Homo sapiens, UniProt Q9H5I1)
# Sequence (Q9H5I1 whole entry, species assumed): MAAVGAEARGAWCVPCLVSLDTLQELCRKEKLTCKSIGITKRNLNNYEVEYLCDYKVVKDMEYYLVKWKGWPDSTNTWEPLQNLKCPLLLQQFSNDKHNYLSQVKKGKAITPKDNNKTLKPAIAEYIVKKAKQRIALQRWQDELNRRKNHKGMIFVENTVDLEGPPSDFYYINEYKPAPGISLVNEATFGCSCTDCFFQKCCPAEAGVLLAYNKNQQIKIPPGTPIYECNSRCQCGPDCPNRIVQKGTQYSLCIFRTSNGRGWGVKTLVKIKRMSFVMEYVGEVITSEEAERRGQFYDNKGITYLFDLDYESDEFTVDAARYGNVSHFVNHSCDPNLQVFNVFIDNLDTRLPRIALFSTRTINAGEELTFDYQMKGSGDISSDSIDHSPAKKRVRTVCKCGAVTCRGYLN
# EXPERIMENT: SAHH-coupled assay, SUV39H2
# Type: biochemical
pIC50: −log10 of the molar value.
PROPERTY: pIC50

q: Name the recorded pIC50 for "COc1cc2c(NC3CCN(C(C)C)CC3)nc(C3CCCCC3)nc2cc1OCCCN1CCCC1" .
a: < 5.00

----------
# TARGET_ENTITY: G9a (Homo sapiens, UniProt Q96KQ7)
PROPERTY: pIC50
pIC50 here: minus log base 10 of the concentration, concentration in moles per litre.

q: Name the recorded pIC50 for "COc1cc2c(N(C)C3CCN(C(C)C)CC3)nc(C3CCCCC3)nc2cc1OCCCN1CCCC1" .
a: 5.30

----------
# TARGET_ENTITY: MLL (Homo sapiens, UniProt Q03164)
# EXPERIMENT: BPS Bioscience assay, MLL
# Assay type: biochemical
pIC50: −log10 of the molar value.
PROPERTY: pIC50

q: Name the recorded pIC50 for COc1cc2c(NC3CCN(C(C)C)CC3)nc(C3CCCCC3)nc2cc1OCCCN1CCCC1 [UNC0638] .
a: < 5.00

----------
# System: MDA-MB-231 cells
# EXPERIMENT: MTT assay, MDA-MB-231
# Type: cell-based, human
# EXPERIMENTAL_CONTEXT: read-out: EC50 cellular toxicity (MTT); MDA-MB-231 cells (n = 3)
PROPERTY: EC50 (µM)
Just the number please, in µM, no unit attached.

q: Name the recorded EC50 for COc1cc2c(N(C)C3CCN(C(C)C)CC3)nc(C3CCCCC3)nc2cc1OCCCN1CCCC1 [UNC0737] .
a: 8.7

----------
# TARGET_ENTITY: M4 (Homo sapiens, UniProt P08173)
# Sequence (P08173 whole entry): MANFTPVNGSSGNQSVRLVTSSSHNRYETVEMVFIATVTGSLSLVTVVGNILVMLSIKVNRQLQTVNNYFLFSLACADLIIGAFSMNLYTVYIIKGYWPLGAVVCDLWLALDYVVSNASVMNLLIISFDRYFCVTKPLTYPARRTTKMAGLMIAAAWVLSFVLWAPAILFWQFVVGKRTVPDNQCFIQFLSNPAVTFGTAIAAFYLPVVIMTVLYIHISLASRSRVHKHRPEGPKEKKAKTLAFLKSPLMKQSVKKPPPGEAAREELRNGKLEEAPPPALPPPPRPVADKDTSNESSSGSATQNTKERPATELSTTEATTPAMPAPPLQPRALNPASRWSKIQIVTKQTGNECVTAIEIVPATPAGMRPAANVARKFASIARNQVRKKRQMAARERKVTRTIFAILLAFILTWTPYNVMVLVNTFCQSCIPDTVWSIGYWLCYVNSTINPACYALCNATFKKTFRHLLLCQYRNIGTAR
# EXPERIMENT: M4 functional assay
PROPERTY: IC50

q: Name the recorded IC50 for COc1cc2c(NC3CCN(C(C)C)CC3)nc(C3CCCCC3)nc2cc1OCCCN1CCCC1 [UNC0638] .
a: > 10 µM

----------
# TARGET_ENTITY: PRMT3 (Homo sapiens, UniProt O60678)
# Sequence (O60678 whole entry, species assumed): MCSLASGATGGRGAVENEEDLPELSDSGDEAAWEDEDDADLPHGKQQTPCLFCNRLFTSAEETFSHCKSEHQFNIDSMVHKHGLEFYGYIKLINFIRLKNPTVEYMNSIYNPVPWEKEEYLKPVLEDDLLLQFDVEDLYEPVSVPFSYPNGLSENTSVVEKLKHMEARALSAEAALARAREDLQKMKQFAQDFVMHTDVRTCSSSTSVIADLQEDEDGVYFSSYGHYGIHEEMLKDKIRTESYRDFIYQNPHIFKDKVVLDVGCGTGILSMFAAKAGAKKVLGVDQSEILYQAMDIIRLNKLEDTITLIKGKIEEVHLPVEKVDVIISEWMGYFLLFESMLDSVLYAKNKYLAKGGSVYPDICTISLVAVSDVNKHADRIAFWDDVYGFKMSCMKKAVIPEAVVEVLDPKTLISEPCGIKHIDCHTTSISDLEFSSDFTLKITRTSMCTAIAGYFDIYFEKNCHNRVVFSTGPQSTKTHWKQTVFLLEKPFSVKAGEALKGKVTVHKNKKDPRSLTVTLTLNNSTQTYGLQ
# EXPERIMENT: SAHH-coupled assay, PRMT3
# Type: biochemical
pIC50: −log10 of the molar value.
PROPERTY: pIC50

q: Name the recorded pIC50 for "COc1cc2c(NC3CCN(C(C)C)CC3)nc(C3CCCCC3)nc2cc1OCCCN1CCCC1" .
a: < 5.00

----------
# TARGET_ENTITY: GLP (Homo sapiens, UniProt Q9H9B1)
PROPERTY: IC50

q: Name the recorded IC50 for "COc1cc2c(N(C)C3CCN(C(C)C)CC3)nc(C3CCCCC3)nc2cc1OCCCN1CCCC1" .
a: > 10 µM
